tgt: Nuclear receptor subfamily 1 group I member 2 (Homo sapiens, UniProt O75469)
Sequence (O75469 whole entry): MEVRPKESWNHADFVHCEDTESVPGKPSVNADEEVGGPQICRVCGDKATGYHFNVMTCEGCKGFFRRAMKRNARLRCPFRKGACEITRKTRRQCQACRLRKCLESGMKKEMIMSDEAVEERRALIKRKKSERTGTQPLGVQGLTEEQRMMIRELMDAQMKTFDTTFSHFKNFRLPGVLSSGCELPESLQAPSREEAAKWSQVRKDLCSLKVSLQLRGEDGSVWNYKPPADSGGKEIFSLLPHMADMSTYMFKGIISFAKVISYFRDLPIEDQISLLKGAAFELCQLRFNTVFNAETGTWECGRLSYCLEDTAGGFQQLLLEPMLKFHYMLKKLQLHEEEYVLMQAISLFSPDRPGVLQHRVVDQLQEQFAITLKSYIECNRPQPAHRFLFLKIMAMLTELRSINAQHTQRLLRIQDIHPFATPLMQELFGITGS
method_notes: Activation of PXR (unknown origin) at 10 uM by CYP450 induction assay relative to rifampicin
Type: ADME
measurement_type: Activity (%)
Numbers only; they are read as %.

INSERT INTO results (compound_structure_string, measurement) VALUES
  ('Nc1cc(S(=O)(=O)c2ccc(OC(F)(F)F)cc2)cnc1C(=O)NC[C@@H](O)C(F)(F)F', 10);

Using the record for `Nc1cc(S(=O)(=O)c2ccccc2OC(F)(F)F)cnc1C(=O)NC[C@@H](O)C(F)(F)F` , report its Activity.
80

Same question, `C[C@H](O)CNC(=O)c1ncc(S(=O)(=O)c2ccc(OC(F)(F)F)cc2)cc1N` this time
12

Same question, `CC(C)(O)CNC(=O)c1ncc(S(=O)(=O)c2ccc(OC(F)(F)F)cc2)cc1N` this time
41

###

tgt: Voltage-gated inwardly rectifying potassium channel KCNH2 (Homo sapiens)
Sequence (Q12809 whole entry): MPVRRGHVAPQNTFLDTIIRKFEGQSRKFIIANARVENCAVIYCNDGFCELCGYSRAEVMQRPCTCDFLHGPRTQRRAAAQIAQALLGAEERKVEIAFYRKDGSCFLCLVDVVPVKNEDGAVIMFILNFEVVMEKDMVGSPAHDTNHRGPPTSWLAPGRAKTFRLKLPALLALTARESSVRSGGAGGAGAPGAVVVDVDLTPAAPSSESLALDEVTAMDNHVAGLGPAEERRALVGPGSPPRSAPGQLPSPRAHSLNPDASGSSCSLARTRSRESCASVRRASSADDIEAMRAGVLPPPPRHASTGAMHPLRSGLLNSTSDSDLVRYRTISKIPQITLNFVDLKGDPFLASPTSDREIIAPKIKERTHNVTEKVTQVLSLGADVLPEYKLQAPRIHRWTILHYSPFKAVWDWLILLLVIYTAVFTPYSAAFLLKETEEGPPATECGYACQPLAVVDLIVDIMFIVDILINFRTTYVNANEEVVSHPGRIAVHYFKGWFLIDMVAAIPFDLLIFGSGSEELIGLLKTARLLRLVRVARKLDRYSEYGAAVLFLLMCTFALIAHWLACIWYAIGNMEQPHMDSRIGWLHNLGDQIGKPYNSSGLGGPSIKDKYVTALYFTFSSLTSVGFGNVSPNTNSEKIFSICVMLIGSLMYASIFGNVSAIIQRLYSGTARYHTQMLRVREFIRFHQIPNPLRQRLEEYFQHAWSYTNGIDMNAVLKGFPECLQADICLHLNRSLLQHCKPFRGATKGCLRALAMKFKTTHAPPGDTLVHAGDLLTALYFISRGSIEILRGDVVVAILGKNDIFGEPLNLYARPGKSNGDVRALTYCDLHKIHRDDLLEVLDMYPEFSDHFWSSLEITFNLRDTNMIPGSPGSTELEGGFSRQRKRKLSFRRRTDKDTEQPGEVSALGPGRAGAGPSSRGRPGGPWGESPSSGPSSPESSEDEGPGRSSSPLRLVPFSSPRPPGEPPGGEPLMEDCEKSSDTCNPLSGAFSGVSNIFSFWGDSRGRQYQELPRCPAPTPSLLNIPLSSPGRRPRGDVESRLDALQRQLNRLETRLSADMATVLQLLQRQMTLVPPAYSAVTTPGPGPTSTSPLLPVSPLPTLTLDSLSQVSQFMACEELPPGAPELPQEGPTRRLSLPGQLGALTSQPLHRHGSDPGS
method_notes: Inhibition of human ERG by manual patch clamp assay
pEC50: −log10 of the molar value.
measurement_type: pEC50

Using the record for `C[C@H](O)CNC(=O)c1ncc(S(=O)(=O)c2ccc(OC(F)(F)F)cc2)cc1N` , report its pEC50.
< 4.52

###

method_notes: Oral bioavailability in rat at 5 mg/kg
Format: ADME, organism-based
test_parameters: in vivo
measurement_type: bioavailability (%)
Numbers only; they are read as %.

Using the record for `COc1ccc(S(=O)(=O)c2cc(C(N)=O)c(NC(=O)C(C)(C)O)s2)cc1` , report its bioavailability.
46

###

method_notes: Unbound clearance in Sprague-Dawley rat at 1 mg/kg, iv
Type: ADME, organism-based
test_parameters: in vivo
Just a reminder that ties go to n: only CL free strictly below 200 mL/min/kg counts as y.

INSERT INTO assay_data (compound, class_name) VALUES
  ('Nc1cc(S(=O)(=O)c2ccc(OC(F)(F)F)cc2)cnc1C(=O)NC[C@@H](O)C(F)(F)F', 'y'),
  ('Nc1cc(S(=O)(=O)c2ccc(F)cc2)cnc1C(=O)NC[C@@H](O)C(F)(F)F', 'y'),
  ('COc1ccc(S(=O)(=O)c2cc(C(N)=O)c(NC(=O)C(C)(C)O)s2)cc1', 'y'),
  ('Nc1cc(S(=O)(=O)N2CCC(OC(F)(F)F)CC2)cnc1C(=O)NCC(O)C(F)(F)F (stereo unspecified)', 'n'),
  ('Nc1cc(S(=O)(=O)c2ccccc2OC(F)(F)F)cnc1C(=O)NC[C@@H](O)C(F)(F)F', 'n');

Please state whether CL free is below 200 mL/min/kg for `C[C@H](O)CNC(=O)c1ncc(S(=O)(=O)c2ccc(OC(F)(F)F)cc2)cc1N`
y

###

method_notes: Oral bioavailability in Beagle dog at 1 mg/kg
Assay type: ADME, organism-based, Canis lupus familiaris
test_parameters: in vivo
measurement_type: bioavailability (%)
Numbers only; they are read as %.

Using the record for `C[C@H](O)CNC(=O)c1ncc(S(=O)(=O)c2ccc(OC(F)(F)F)cc2)cc1N` , report its bioavailability.
93

###

Form field: clearance (one value per entry).
method_notes: Clearance in Sprague-Dawley rat at 1 mg/kg, iv
Type: ADME, organism-based
test_parameters: in vivo
Numbers only; they are read as mL/min/kg.

Using the record for `C[C@H](O)CNC(=O)c1ncc(S(=O)(=O)c2ccc(OC(F)(F)F)cc2)cc1N` , report its clearance.
1.33

Same question, `Nc1cc(S(=O)(=O)c2ccc(OC(F)(F)F)cc2)cnc1C(=O)NC[C@@H](O)C(F)(F)F` this time
1.33

Same question, Nc1cc(S(=O)(=O)N2CCC(OC(F)(F)F)CC2)cnc1C(=O)NCC(O)C(F)(F)F (stereo unspecified) this time
31.7

Origin of measurements: ChEMBL document CHEMBL4765492
